These data points were gathered from BindingDB's records for patent WO2022021841.

target: Replicase polyprotein 1ab (Severe acute respiratory syndrome coronavirus 2, UniProt P0DTD1); assay: SARS-CoV-2 in Vero E6
Reported pEC50 is given for each of the following compounds.
Give only the number. pEC50 is defined as minus log10 of concentration in molar units.

>  <compound>
CC1(C)[C@@H]2C(C(=O)N[C@H](C=O)C[C@@H]3CCNC3=O)N(C(=O)COc3ccc(Cl)c(Br)c3)C[C@@H]21 (stereo partly drawn) [WO2022021841, 30]

>  <pEC50>
5.94

$$$$

Recorded result, CC1(C)[C@@H]2C(C(=O)N[C@H](C=O)C[C@@H]3CCNC3=O)N(C(=O)COc3ccc(F)c(F)c3)C[C@@H]21 (stereo partly drawn) [WO2022021841, 33] , pEC50: 5.25

Recorded result, O=C[C@H](C[C@@H]1CCNC1=O)NC(=O)C1[C@H]2CCC[C@H]2CN1C(=O)CCc1cc(F)cc(F)c1 (stereo partly drawn) [WO2022021841, 19] , pEC50: 5.25

====

Measured pKi (Replicase polyprotein 1ab (Severe acute respiratory syndrome coronavirus 2))
Give only the number. pKi is defined as minus log10 of concentration in molar units.

>  <compound>
CC1(C)CNC(=O)[C@@H]1C[C@@H](C=O)NC(=O)C1[C@@H]2CCC[C@H]2CN1C(=O)COc1ccc(Cl)cc1Cl (stereo partly specified)

>  <pKi>
7.62

$$$$

Fill in: Replicase polyprotein 1ab (Severe acute respiratory syndrome coronavirus 2) pKi for O=C[C@H](C[C@@H]1CCNC1=O)NC(=O)C1[C@@H]2CCC[C@H]2CN1C(=O)COc1cccc(-c2ccccc2)c1 (stereo partly specified) = 8.00

====

Measured Ki (UniProt:P0DTD1)
Reply numerically in nM, unit not repeated.

>  <compound>
CC1(C)[C@@H]2C(C(=O)N[C@H](C=O)C[C@@H]3CCNC3=O)N(C(=O)CCc3cccc(F)c3)C[C@@H]21 (some centres undefined) [WO2022021841, 36]

>  <measurement-units>
nM

>  <Ki>
16

$$$$

Fill in: UniProt:P0DTD1 Ki for O=C[C@H](C[C@@H]1CCNC1=O)NC(=O)C1[C@@H]2CCC[C@H]2CN1C(=O)CCc1ccc(Cl)cc1 (some centres undefined) [WO2022021841, 65] = 44

Fill in: UniProt:P0DTD1 Ki for COc1ccc(CNC(=O)N2C[C@@H]3CCC[C@H]3C2C(=O)N[C@H](C=O)C[C@@H]2CCNC2=O)cc1 (some centres undefined) [WO2022021841, 57] = 26

Fill in: UniProt:P0DTD1 Ki for CC1(C)[C@@H]2C(C(=O)N[C@H](C=O)C[C@@H]3CCNC3=O)N(C(=O)COc3ccc(Br)cc3Cl)C[C@@H]21 (some centres undefined) [WO2022021841, 31] = 15

Fill in: UniProt:P0DTD1 Ki for CC1(C)[C@@H]2C(C(=O)N[C@H](C=O)C[C@@H]3CCNC3=O)N(C(=O)c3ccc4ccccc4c3)C[C@@H]21 (some centres undefined) [WO2022021841, 16] = 343

Fill in: UniProt:P0DTD1 Ki for CC1(C)[C@H]2CN(C(=O)COc3ccc(Cl)cc3Cl)C(C(=O)N[C@H](C=O)C[C@H]3C(=O)NCC3(F)F)[C@@H]21 (some centres undefined) [WO2022021841, 56] = 33

Fill in: UniProt:P0DTD1 Ki for O=C[C@H](C[C@@H]1CCNC1=O)NC(=O)C1[C@@H]2CCC[C@H]2CN1C(=O)CCc1ccc(Cl)cc1Cl (some centres undefined) [WO2022021841, 67] = 40

Fill in: UniProt:P0DTD1 Ki for CC1(C)[C@@H]2C(C(=O)N[C@H](C=O)Cc3ccccc3)N(C(=O)c3ccc4ccccc4n3)C[C@@H]21 (some centres undefined) [WO2022021841, 9] = 24200

Fill in: UniProt:P0DTD1 Ki for O=C(NCc1ccccc1)C(=O)[C@H](C[C@@H]1CCNC1=O)NC(=O)C1[C@@H]2CCC[C@H]2CN1C(=O)COc1ccc(Cl)cc1Cl (some centres undefined) [WO2022021841, 51] = 50400

Fill in: UniProt:P0DTD1 Ki for COc1cccc(CCC(=O)N2C[C@@H]3CCC[C@H]3C2C(=O)N[C@H](C=O)C[C@@H]2CCNC2=O)c1 (some centres undefined) [WO2022021841, 78] = 68

Fill in: UniProt:P0DTD1 Ki for CC(C)(C)C(NC(=O)Cc1ccc(Cl)cc1Cl)C(=O)N1C[C@@H]2CCC[C@H]2C1C(=O)N[C@H](C=O)C[C@@H]1CCNC1=O (some centres undefined) [WO2022021841, 60] = 33

Fill in: UniProt:P0DTD1 Ki for CC(C)(Oc1ccc(Cl)cc1Cl)C(=O)N1C[C@@H]2CCC[C@H]2C1C(=O)N[C@H](C=O)C[C@@H]1CCNC1=O (some centres undefined) [WO2022021841, 39] = 33

Fill in: UniProt:P0DTD1 Ki for CC(C)(C)NC(=O)C(=O)[C@H](C[C@@H]1CCNC1=O)NC(=O)C1[C@@H]2CCC[C@H]2CN1C(=O)COc1ccc(Cl)cc1Cl (some centres undefined) [WO2022021841, 50] = 1190

Fill in: UniProt:P0DTD1 Ki for CC1CNC(=O)[C@@H]1C[C@@H](C=O)NC(=O)C1[C@@H]2[C@H](CN1C(=O)COc1cccc(-c3ccc(Cl)cc3)c1)C2(C)C (some centres undefined) [WO2022021841, 49] = 22

====

Reported pKi is given for each of the following molecules.
target: Replicase polyprotein 1ab (Severe acute respiratory syndrome coronavirus 2, UniProt P0DTD1)
Give only the number. pKi is defined as minus log10 of concentration in molar units.

>  <molecule>
O=C[C@H](C[C@@H]1CCNC1=O)NC(=O)C1[C@@H]2CCC[C@H]2CN1C(=O)CCc1ccc(O)c(O)c1 (stereo partly drawn)

>  <recorded-number>
7.39

$$$$
>  <molecule>
O=C(N[C@@H](C[C@@H]1CCNC1=O)C(=O)CCl)C1[C@@H]2CCC[C@H]2CN1C(=O)COc1ccc(Cl)cc1Cl (stereo partly drawn)

>  <recorded-number>
7.72

$$$$
>  <molecule>
O=C[C@H](C[C@@H]1CCNC1=O)NC(=O)C1[C@@H]2CCC[C@H]2CN1C(=O)CCc1cccc(Cl)c1 (stereo partly drawn)

>  <recorded-number>
7.44

$$$$
>  <molecule>
CCC[C@@H](NC(=O)C1[C@@H]2CCC[C@H]2CN1C(=O)c1cc2ccccc2[nH]1)C(=O)C(=O)NC1CC1 (stereo partly drawn)

>  <recorded-number>
6.02

$$$$
>  <molecule>
COC(=O)C[C@H](NC(=O)[C@@H]1[C@@H]2[C@H](CN1C(=O)/C=C/c1ccccc1)C2(C)C)C(=O)CF

>  <recorded-number>
6.96

$$$$
>  <molecule>
CC1CNC(=O)[C@@H]1C[C@@H](C=O)NC(=O)C1[C@@H]2CCC[C@H]2CN1C(=O)C(C)(C)Oc1ccc(Cl)cc1Cl (stereo partly drawn)

>  <recorded-number>
7.25

$$$$
>  <molecule>
O=C[C@H](C[C@@H]1CCNC1=O)NC(=O)C1[C@@H]2CCC[C@H]2CN1C(=O)CCc1cccc(F)c1 (stereo partly drawn)

>  <recorded-number>
8.15

$$$$

Recorded result, CC1CNC(=O)[C@@H]1C[C@H](NC(=O)C1[C@H]2CCC[C@H]2CN1C(=O)COc1cccc(-c2ccccc2)c1)C(=O)CF (stereo partly drawn) , pKi: 7.96

====

Measured Ki (Replicase polyprotein 1ab (Severe acute respiratory syndrome coronavirus 2))
Please format your answer as a value with the unit trailing.

Take a look at these entries with their results.
>  <compound>
CC1(C)[C@@H]2C(C(=O)N[C@H](C=O)C[C@@H]3CCNC3=O)N(C(=O)COc3ccc(Cl)c(Br)c3)C[C@@H]21 (stereo partly drawn) [WO2022021841, 30]

>  <Ki>
14 nM

$$$$
>  <compound>
CC(C)(C)C(NCc1ccc(Cl)cc1Cl)C(=O)N1C[C@@H]2CCC[C@H]2C1C(=O)N[C@H](C=O)C[C@@H]1CCNC1=O (stereo partly drawn) [WO2022021841, 61]

>  <Ki>
39 nM

$$$$

Next compound, Ki to be filled in.
Fill in: Replicase polyprotein 1ab (Severe acute respiratory syndrome coronavirus 2) Ki for COc1ccc(OCC(=O)N2C[C@H]3[C@@H](C2C(=O)N[C@H](C=O)C[C@@H]2CCNC2=O)C3(C)C)cc1F (stereo partly drawn) [WO2022021841, 28] = 47 nM

====

target: Replicase polyprotein 1ab (Severe acute respiratory syndrome coronavirus 2, UniProt P0DTD1); assay: SARS-CoV-2 in Vero E6
Reported EC50 is given for each of the following compounds.
Reply numerically in nM, unit not repeated.

Take a look at these entries with their results.
>  <compound>
O=C[C@H](C[C@@H]1CCNC1=O)NC(=O)C1[C@@H]2CCC[C@H]2CN1C(=O)COc1ccc(Cl)c(Cl)c1 (stereo not given in full) [WO2022021841, 45]

>  <EC50 / nM>
830

$$$$
>  <compound>
CC1(C)[C@@H]2C(C(=O)N[C@H](C=O)C[C@@H]3CCNC3=O)N(C(=O)CCc3cccc(F)c3)C[C@@H]21 (stereo not given in full) [WO2022021841, 36]

>  <EC50 / nM>
2230

$$$$
>  <compound>
CC1(C)[C@@H]2C(C(=O)N[C@H](C=O)C[C@@H]3CCNC3=O)N(C(=O)COc3ccc4ccccc4c3)C[C@@H]21 (stereo not given in full) [WO2022021841, 27]

>  <EC50 / nM>
1270

$$$$
>  <compound>
O=C[C@H](C[C@@H]1CCNC1=O)NC(=O)C1[C@@H]2CCC[C@H]2CN1C(=O)COc1ccc(Cl)cc1 (stereo not given in full) [WO2022021841, 26]

>  <EC50 / nM>
670

$$$$

Next compound, EC50 to be filled in.
Recorded result, Cc1cc(Cl)ccc1OCC(=O)N1C[C@@H]2CCC[C@H]2C1C(=O)N[C@H](C=O)C[C@@H]1CCNC1=O (stereo not given in full) [WO2022021841, 24] , EC50: 1500
